Tested on: Bacillus subtilis
method-summary: cleaved RNA product abundance (RNA/gDNA barcode ratio) relative to median wild-type variant (ratio to wild type); higher = more accumulation of the downstream cleavage product
test-context: experiment (reporter, strain, medium): exp 4a: truncated aprE reporter, strain BJT201 with 2% xylose (RNase J1 expressed); cleavage site: cggR-gapA (positions -7 to +36 mutated)
cleaved RNA product abundance by entry:
Answer using only a numeral; do not append any unit.

As a guide, the following entries are already answered.
INSERT INTO assay_data (biosequence, recorded_number) VALUES
  ('ACAGACGAAGGAGCCGCAAAGTAGTTATTAAAGGATGAATAATCCATCAATATAAATATCTCTCACTTATTTAAA', 0.153),
  ('ACAGACGAAGGAGCCGCAAAGAAGTTATTAAGCGATGAATAATCACTCAATATAAATATCTCTCACTTATTTAAA', 0.101),
  ('ACAGACGAAGGAGCCGCTAAGAAGTGATTAAGGGATGAATAATCCCTCAATATAAATATCTCTCACTTATTTAAA', 0.419);

Incoming: Give the measured cleaved RNA product abundance of ACAGACGAAGGAGCCGCAAAGAAGTTATTAAGGGATCAATAATCCCTGAATATAAATATCTCTCACTTATTTAAA .
Outgoing: 0.61

* * *

Test system: Bacillus subtilis
method-summary: cleaved RNA product abundance (RNA/gDNA barcode ratio) relative to median wild-type variant (ratio to wild type); higher = more accumulation of the downstream cleavage product
test-context: experiment (reporter, strain, medium): exp 4a: truncated aprE reporter, strain BJT201 with 2% xylose (RNase J1 expressed); cleavage site: cggR-gapA (positions -7 to +36 mutated)
Returns YES if the recorded cleaved RNA product abundance is greater than or equal to 0.5, and NO otherwise.

INSERT INTO measurements (biosequence, label_class) VALUES
  ('ACAGACGAAGGAGCCGCAAAGAAGTTATTGAGGGATGAATAATCCCTAAATATAAATATCTCTCACTTATTTAAA', 'YES'),
  ('ACAGACGAAGGAGCCGCAAAGAAGTTATTAAGGAATGAATAATCCCTCAATATACATATCTCTCACTTATTTAAA', 'NO'),
  ('ACAGACGAAGGAGCCGCAAAGAAGTTATTAAGTGATGAATAATCCCTGAATATAAATATCTCTCACTTATTTAAA', 'NO'),
  ('ACAGACGAAGGAGCCGCAAAGAAGTTATTAAGGGATGAATAATCCGTCAATATCAATATCTCTCACTTATTTAAA', 'NO'),
  ('ACAGACGAAGGAGCCGCAAAGAACTTATTAAGGGATGAATAATCCCTGAATATAAATATCTCTCACTTATTTAAA', 'NO'),
  ('ACAGACGAAGGAGCCGCAAAGAAGTTATTAGGGGATTAATAATCCCTCAATATAAATATCTCTCACTTATTTAAA', 'YES');

Incoming: Form field: cleaved RNA product abundance at least 0.5? Entry: ACAGACGAAGGAGCCGCAAAGAAGTTATTAAGGGATGAATAATCCATCAATATAAATCTCTCTCACTTATTTAAA
Outgoing: NO

Incoming: Is it the case that ACAGACGAAGGAGCCGCAAAGAAGTTCTTCAGGGATGAATAATCCCTCAATATAAATATCTCTCACTTATTTAAA has cleaved RNA product abundance reaching or exceeding 0.5?
Outgoing: NO

* * *

Tested on: Bacillus subtilis
method-summary: cleaved RNA product abundance (RNA/gDNA barcode ratio) relative to median wild-type variant (ratio to wild type); higher = more accumulation of the downstream cleavage product
test-context: experiment (reporter, strain, medium): exp 8a: truncated aprE reporter, strain BJT201 with 2% xylose (RNase J1 expressed); cleavage site: glnRA (positions -5 to +31 mutated)
Catalogue of cleaved RNA product abundance readings, one per entry.
Answer field: number only, no words.

Check out these entries, answers already filled in.
INSERT INTO assay_data (biosequence, system_under_test, recorded_number) VALUES
  ('CGACATGTCCCGCTTCTTTCATTAATCCGTTAGCAACTGTTTTGATATATACATTTGCCTTTTAAGAGGAGGAAT', 'Bacillus subtilis', 0.378),
  ('CGACATGTCCCGCTTCTTTCATTAATCCGTTAGTAACTGTTTTGCTAAATACATTTACCTTTTAAGAGGAGGAAT', 'Bacillus subtilis', 0.496),
  ('CGACATGTCCCGCTTCTTTCATTAATCCGTTATCAACTGTTTTGCTGTATACATTTACCTTTTAAGAGGAGGAAT', 'Bacillus subtilis', 0.192);

Proceeding to the next sequence to report its cleaved RNA product abundance.
Incoming: Which cleaved RNA product abundance value belongs to CGACATGTCCCGCTTCTTTCATTAATCCGTTATCATCTGTTTTGCTATATACATTTACCTTTTAAGAGGAGGAAT ?
Outgoing: 0.267

* * *

Tested on: Bacillus subtilis
method-summary: cleaved RNA product abundance (RNA/gDNA barcode ratio) relative to median wild-type variant (ratio to wild type); higher = more accumulation of the downstream cleavage product
test-context: experiment (reporter, strain, medium): exp 4a: truncated aprE reporter, strain BJT201 with 2% xylose (RNase J1 expressed); cleavage site: cggR-gapA (positions -7 to +36 mutated)
Readings of cleaved RNA product abundance for the listed sequences

INSERT INTO assay_data (biosequence, result) VALUES
  ('ACAGACGAAGGAGCCGCAAAGAAGTTATTAAGGGGTGAATACTCCCTCAATATAAATATCTCTCACTTATTTAAA', 0.256),
  ('ACAGACGAAGGAGCCGCAAAGAAGTTATTAAGGGAAGAATAATCCCTCAATATAATTATCTCTCACTTATTTAAA', 0.314),
  ('ACAGACGAAGGAGCCGCAAAGAAGTTATGAATGGATGAATAATCCCTCAATATAAATATCTCTCACTTATTTAAA', 0.147),
  ('ACAGACGAAGGAGCCGCAAAGAAGTTATTAAGGGACGAATAATCCGTCAATATAAATATCTCTCACTTATTTAAA', 0.072),
  ('ACAGACGAAGGAGCCGCAAAGAAGTTATTGAGGCATGAATAATCCCTCAATATAAATATCTCTCACTTATTTAAA', 0.0717);

Incoming: Query the reported cleaved RNA product abundance for Bacillus subtilis; item: ACAGACGAAGGAGCCGCAAAGAAGTTATTAAGGGATGAATAAACCCTCAATATAAATGTCTCTCACTTATTTAAA
Outgoing: 0.39

Incoming: Hello, I am looking for reported cleaved RNA product abundance with Bacillus subtilis for ACAGACGAAGGAGCCGCAAAGAAGTTATTACGGGATAAATAATCCCTCAATATAAATATCTCTCACTTATTTAAA . Could you help?
Outgoing: 0.416

Incoming: What measured cleaved RNA product abundance is associated with ACAGACGAAGGAGCCGCAAAGAAGTTATTAAGGAATGAATAATCCGTCAATATAAATATCTCTCACTTATTTAAA on Bacillus subtilis?
Outgoing: 0.0653

Incoming: Provide value of cleaved RNA product abundance for this record tested with Bacillus subtilis: ACAGACGAAGGAGCCGCAAAGAAGTTATTAAGGGATGAATAATCGCTCAATGTAAATATCTCTCACTTATTTAAA
Outgoing: 0.048

Incoming: What reported cleaved RNA product abundance corresponds to ACAGACGAAGGAGCCGCAAAGAAGTTATTAAGGGATGAATAATAACTCAATATAAATATCTCTCACTTATTTAAA on Bacillus subtilis?
Outgoing: 0.128

* * *

Test system: Bacillus subtilis
method-summary: cleaved RNA product abundance (RNA/gDNA barcode ratio) relative to median wild-type variant (ratio to wild type); higher = more accumulation of the downstream cleavage product
test-context: experiment (reporter, strain, medium): exp 8a: truncated aprE reporter, strain BJT201 with 2% xylose (RNase J1 expressed); cleavage site: glnRA (positions -5 to +31 mutated)
Tag: 1 (yes) if measured cleaved RNA product abundance is not below 0.4, 0 (no) if it is.

INSERT INTO results (biosequence, label_class) VALUES
  ('CGACATGTCCCGCTTCTTTCATTAATCCGTTAGCAACTGTTTTGCTACATACAATTACCTTTTAAGAGGAGGAAT', '0 (no)'),
  ('CGACATGTCCCGCTTCTTTCATTAATCAATTAGCAACTGTTTTGCTATATACATTTACCTTTTAAGAGGAGGAAT', '1 (yes)'),
  ('CGACATGTCCCGCTTCTTTCATTACTCCGTTAGCAACTGTTTTTCTATTTACATTTACCTTTTAAGAGGAGGAAT', '0 (no)'),
  ('CGACATGTCCCGCTTCTTTCATTATTCCTTTACCAACTTTTTTGCTATATATATATACCTTTTAAGAGGAGGAAT', '0 (no)'),
  ('CGACATGTCCCGCTTCTTTCATTAATCCGTTAGTAACTTTTTTGCTATATACATTTACCTTTTAAGAGGAGGAAT', '1 (yes)'),
  ('CGACATGTCCCGCTTCTTTCATTAATCAGTTAGCAACTGTGTTGCTATATACATTTACCTTTTAAGAGGAGGAAT', '0 (no)'),
  ('CGACATGTCCCGCTTCTTTCATTAATCCGTTTGCAACTGTTTTGCTAAATACATTTACCTTTTAAGAGGAGGAAT', '0 (no)'),
  ('CGACATGTCCCGCTTCTTTCATTAATCCTTTAGCAACTGTTTTGCTATATACAATTACCTTTTAAGAGGAGGAAT', '1 (yes)');

Incoming: Assess whether reported cleaved RNA product abundance for CGACATGTCCCGCTTCTTTCATTAATCCGTTAGCAAATGTTTTGCAATATACATTTACCTTTTAAGAGGAGGAAT sits at 0.4 or higher.
Outgoing: 0 (no)

Incoming: Is cleaved RNA product abundance for CGACATGTCCCGCTTCTTTCATTAATCTGTGAGCAACTGTTTTGCTATATACATTTACCTTTTAAGAGGAGGAAT at or above 0.4?
Outgoing: 1 (yes)

Incoming: Hi team, for CGACATGTCCCGCTTCTTTCATTAATCCGTTAGCAACTGTTTTGCTACATACATTAACCTTTTAAGAGGAGGAAT , is the recorded cleaved RNA product abundance at or above 0.4?
Outgoing: 1 (yes)
